Molecular target: Protein cereblon/Interleukin-1 receptor-associated kinase 4 (Homo sapiens, UniProt Q9NWZ3+Q96SW2)
Sequence (Q96SW2 whole entry, looked up): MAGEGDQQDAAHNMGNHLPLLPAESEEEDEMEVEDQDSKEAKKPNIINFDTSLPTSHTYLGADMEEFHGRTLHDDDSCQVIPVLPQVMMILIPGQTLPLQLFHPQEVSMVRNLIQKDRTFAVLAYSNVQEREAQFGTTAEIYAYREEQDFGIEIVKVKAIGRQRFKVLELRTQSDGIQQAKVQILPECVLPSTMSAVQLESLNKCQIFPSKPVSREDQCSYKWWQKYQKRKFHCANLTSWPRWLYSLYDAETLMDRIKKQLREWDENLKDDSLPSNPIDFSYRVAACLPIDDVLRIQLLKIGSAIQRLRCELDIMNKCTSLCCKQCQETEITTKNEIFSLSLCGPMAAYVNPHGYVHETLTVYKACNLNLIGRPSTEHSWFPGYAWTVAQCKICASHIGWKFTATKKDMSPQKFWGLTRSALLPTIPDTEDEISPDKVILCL
Sequence (Q9NWZ3 whole entry, looked up): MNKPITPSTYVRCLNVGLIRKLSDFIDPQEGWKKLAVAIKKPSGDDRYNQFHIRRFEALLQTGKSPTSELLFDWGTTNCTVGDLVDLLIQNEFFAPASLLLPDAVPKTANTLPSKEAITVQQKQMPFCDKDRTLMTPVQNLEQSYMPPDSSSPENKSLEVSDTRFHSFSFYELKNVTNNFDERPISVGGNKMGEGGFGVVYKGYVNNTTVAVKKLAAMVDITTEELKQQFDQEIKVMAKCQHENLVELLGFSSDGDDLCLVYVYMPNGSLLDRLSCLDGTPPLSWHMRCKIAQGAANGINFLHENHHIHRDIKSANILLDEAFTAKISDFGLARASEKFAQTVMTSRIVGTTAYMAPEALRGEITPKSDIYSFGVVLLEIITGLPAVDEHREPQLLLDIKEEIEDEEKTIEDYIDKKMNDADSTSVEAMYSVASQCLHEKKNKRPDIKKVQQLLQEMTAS
Test: PROTAC activity at CRBN/IRAK4 in human THP-1 cells assessed as induction of IRAK4 degradation incubated for 24 hrs by HiBiT lytic reagent based analysis relative to control
Type: cell-based
Parameter Measured: Emax (%)

Recall and state the measured Emax for Cn1c(=O)n(C2CCC(=O)NC2=O)c2cccc(C#CCO[C@H]3CC[C@H](CN4CCC5(Cc6cc(NC(=O)c7cnn8cccnc78)c(N7CCC(CO)CC7)cc6O5)C4)CC3)c21 (some centres not stated) . 84

Recall and state the measured Emax for Cn1c(=O)n(C2CCC(=O)NC2=O)c2cccc(C#CCO[C@H]3CC[C@H](C(=O)N4CCC5(CC4)Cc4cc(NC(=O)c6cnn7cccnc67)c(N6CCC(CO)CC6)cc4O5)CC3)c21 (some centres not stated) . 86

Recall and state the measured Emax for Cn1c(=O)n(C2CCC(=O)NC2=O)c2cccc(C#CCOCCNCCN3CCC4(CC3)Cc3cc(NC(=O)c5cnn6cccnc56)c(N5CCC(CO)CC5)cc3O4)c21 (configuration not stated) . 89

Recall and state the measured Emax for Cn1c(=O)n(C2CCC(=O)NC2=O)c2cccc(C#CCO[C@H]3CC[C@H](CN4CCC5(CC4)Cc4cc(NC(=O)c6cnn7cccnc67)c(N6CCC(O)CC6)cc4O5)CC3)c21 (some centres not stated) . 87

Recall and state the measured Emax for Cn1c(=O)n(C2CCC(=O)NC2=O)c2cccc(CCCOCCNCCN3CCC4(CC3)Cc3cc(NC(=O)c5cnn6cccnc56)c(N5CCC(CO)CC5)cc3O4)c21 (configuration not stated) . 68

Recall and state the measured Emax for Cn1c(=O)n(C2CCC(=O)NC2=O)c2cccc(C#CCO[C@H]3CC[C@@H](CN4CCC5(CC4)Cc4cc(NC(=O)c6coc7cccnc67)c(N6CCC(CO)CC6)cc4O5)CC3)c21 (some centres not stated) . 86

Recall and state the measured Emax for Cn1c(=O)n(C2CCC(=O)NC2=O)c2cccc(C#CCO[C@H]3CC[C@@](F)(CN4CCC5(CC4)Cc4cc(NC(=O)c6cnn7cccnc67)c(N6CCC(CO)CC6)cc4O5)CC3)c21 (some centres not stated) . 91

* * *

Test: Tmax in Sprague-Dawley rat at 10 mg/kg, po measured up to 24 hrs by LC-MS/MS analysis
Type: ADME, organism-based
Settings: in vivo
Parameter Measured: Tmax (h)

Recall and state the measured Tmax for Cn1c(=O)n(C2CCC(=O)NC2=O)c2cccc(C#CCO[C@H]3CC[C@H](CN4CCC5(CC4)Cc4cc(NC(=O)c6cnn7cccnc67)c(N6CCC(CO)CC6)cc4O5)CC3)c21 (some centres undefined) . 6

Recall and state the measured Tmax for Cn1c(=O)n(C2CCC(=O)NC2=O)c2cccc(C#CCO[C@H]3CC[C@H](CN4CCC5(CC4)Cc4cc(NC(=O)c6cnn7cccnc67)c(N6CCC(O)CC6)cc4O5)CC3)c21 (some centres undefined) . 8

Recall and state the measured Tmax for Cn1c(=O)n(C2CCC(=O)NC2=O)c2cccc(C#CCO[C@H]3CC[C@H](CN4CCC5(CC4)Cc4cc(NC(=O)c6cnn7cc(F)cnc67)c(N6CCC(CO)CC6)cc4O5)CC3)c21 (some centres undefined) . 6

Recall and state the measured Tmax for Cn1c(=O)n(C2CCC(=O)NC2=O)c2cccc(C#CCO[C@H]3CC[C@H](CN4CCC5(CC4)Cc4cc(NC(=O)c6coc7cccnc67)c(N6CCC(CO)CC6)cc4O5)CC3)c21 (some centres undefined) . 6
